assay: self-splicing fitness, log relative to wild type (ln ratio); higher = more splicing; Tetrahymena group I intron in knt gene, E. coli kanamycin selection, DiMSum; sequences stand for … in CUCUCU…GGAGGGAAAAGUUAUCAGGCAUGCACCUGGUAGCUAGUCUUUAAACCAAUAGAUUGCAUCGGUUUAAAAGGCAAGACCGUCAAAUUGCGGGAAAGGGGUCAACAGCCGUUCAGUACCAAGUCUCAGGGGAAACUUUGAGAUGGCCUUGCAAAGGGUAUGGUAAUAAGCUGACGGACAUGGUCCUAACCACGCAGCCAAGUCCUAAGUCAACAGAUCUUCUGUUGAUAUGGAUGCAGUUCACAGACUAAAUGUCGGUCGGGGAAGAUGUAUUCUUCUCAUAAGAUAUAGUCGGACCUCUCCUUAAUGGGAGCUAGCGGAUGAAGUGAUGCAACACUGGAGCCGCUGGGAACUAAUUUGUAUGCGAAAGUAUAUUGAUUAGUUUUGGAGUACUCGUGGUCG; conditions: 37 °C;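 also: selection with 25 µg/mL kanamycin versus none on LB agar overnight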
We begin with a simple list: items and their reported self-splicing fitness (ln).
Quantity: self-splicing fitness (ln)

INSERT INTO assay_data (biosequence, quantity, readout_value) VALUES
  ('AGCUAGCAAUAUUACGGGUC', 'self-splicing fitness (ln)', -1.7),
  ('AUAUAGCAAUAUUACGUUUG', 'self-splicing fitness (ln)', -2.21),
  ('AGGGAGCAAUAUUACGCUGC', 'self-splicing fitness (ln)', -2.35),
  ('UCUCAGCAAUAUUACGUUGC', 'self-splicing fitness (ln)', -2.73),
  ('CCAAAGCAAUAUUACGAUUG', 'self-splicing fitness (ln)', -0.695),
  ('UUGAAGCAAUAUUACGGGAC', 'self-splicing fitness (ln)', -2.34),
  ('AGGGAGCAAUAUUACGUGAG', 'self-splicing fitness (ln)', -2.56),
  ('GGAGAGCAAUAUUACGAUCA', 'self-splicing fitness (ln)', -1.73),
  ('AAUGAGCAAUAUUACGGUUU', 'self-splicing fitness (ln)', -0.543);

* * *

assay: self-splicing fitness, log relative to wild type (ln ratio); higher = more splicing; Tetrahymena group I intron in knt gene, E. coli kanamycin selection, DiMSum; sequences stand for … in CUCUCU…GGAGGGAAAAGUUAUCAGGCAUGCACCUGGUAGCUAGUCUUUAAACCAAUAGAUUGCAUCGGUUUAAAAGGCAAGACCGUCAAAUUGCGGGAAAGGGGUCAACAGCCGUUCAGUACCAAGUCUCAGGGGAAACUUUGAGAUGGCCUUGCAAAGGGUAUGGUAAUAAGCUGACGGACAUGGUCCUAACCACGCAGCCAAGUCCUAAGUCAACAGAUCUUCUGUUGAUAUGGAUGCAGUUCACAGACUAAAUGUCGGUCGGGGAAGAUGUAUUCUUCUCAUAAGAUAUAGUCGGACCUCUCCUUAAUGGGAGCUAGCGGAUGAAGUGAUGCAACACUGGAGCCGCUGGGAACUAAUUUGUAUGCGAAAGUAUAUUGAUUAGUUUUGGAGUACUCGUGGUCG; conditions: 30 °C
Heads up, the class ranges for self-splicing fitness (ln) are bottom bin (below -3), middle bin (-3 to below -2), top bin (-2 or more)

INSERT INTO results (biosequence, assigned_class) VALUES
  ('UAGAAGCAAUAUUACGACGG', 'top bin'),
  ('UUACAGCAAUAUUACGGGAU', 'bottom bin'),
  ('GGCAAGCAAUAUUACGUCGA', 'top bin'),
  ('GACAAGCAAUAUUACGAAUC', 'middle bin'),
  ('UCACAGCAAUAUUACGAAAU', 'bottom bin'),
  ('CCGGAGCAAUAUUACGCUCG', 'bottom bin'),
  ('ACUUAGCAAUAUUACGCAGG', 'middle bin'),
  ('UCCUAGCAAUAUUACGAGGA', 'middle bin'),
  ('AGCCAGCAAUAUUACGAGUG', 'bottom bin'),
  ('GCAUAGCAAUAUUACGAUGA', 'top bin'),
  ('GCUCAGCAAUAUUACGUAUA', 'top bin'),
  ('UACCAGCAAUAUUACGAGGU', 'bottom bin'),
  ('GGGUAGCAAUAUUACGUUGG', 'bottom bin'),
  ('UAGUAGCAAUAUUACGGCGC', 'top bin'),
  ('CGUGAGCAAUAUUACGGGGA', 'bottom bin'),
  ('CCCUAGCAAUAUUACGAUGG', 'bottom bin'),
  ('AGACAGCAAUAUUACGCGUC', 'bottom bin'),
  ('GCCAAGCAAUAUUACGCGGA', 'top bin'),
  ('AGAGAGCAAUAUUACGUUCA', 'middle bin'),
  ('AUUUAGCAAUAUUACGCAUC', 'bottom bin'),
  ('ACCUAGCAAUAUUACGCUUC', 'top bin'),
  ('CUUGAGCAAUAUUACGGCCA', 'top bin'),
  ('GGUCAGCAAUAUUACGGUUG', 'top bin'),
  ('CCGGAGCAAUAUUACGAGAG', 'middle bin'),
  ('UGCGAGCAAUAUUACGUUUA', 'middle bin'),
  ('CCCAAGCAAUAUUACGUUUG', 'bottom bin'),
  ('AGUAAGCAAUAUUACGACAC', 'top bin'),
  ('CAAUAGCAAUAUUACGGUUA', 'top bin'),
  ('UAAAAGCAAUAUUACGGGGU', 'bottom bin'),
  ('AUGUAGCAAUAUUACGGGGU', 'middle bin'),
  ('UACUAGCAAUAUUACGCCGU', 'middle bin'),
  ('GUGAAGCAAUAUUACGUUAG', 'top bin'),
  ('GCACAGCAAUAUUACGUCUC', 'top bin'),
  ('CAUAAGCAAUAUUACGGUAG', 'top bin'),
  ('AAGUAGCAAUAUUACGCUAU', 'bottom bin'),
  ('AUGUAGCAAUAUUACGACGA', 'top bin'),
  ('UUUCAGCAAUAUUACGCGUU', 'middle bin'),
  ('GGGGAGCAAUAUUACGUUCA', 'top bin'),
  ('UCGUAGCAAUAUUACGCGAA', 'middle bin'),
  ('CGCCAGCAAUAUUACGAUAG', 'top bin'),
  ('CACAAGCAAUAUUACGUUGC', 'bottom bin'),
  ('UGAUAGCAAUAUUACGCAUG', 'top bin'),
  ('AAAAAGCAAUAUUACGCGGU', 'middle bin'),
  ('CCCGAGCAAUAUUACGACCG', 'bottom bin'),
  ('CAACAGCAAUAUUACGGCAA', 'top bin'),
  ('UAACAGCAAUAUUACGUUAG', 'middle bin'),
  ('GUCUAGCAAUAUUACGAGAC', 'bottom bin'),
  ('UGCAAGCAAUAUUACGUGCC', 'top bin'),
  ('UUUAAGCAAUAUUACGAAAG', 'bottom bin'),
  ('UUAAAGCAAUAUUACGAUAA', 'top bin'),
  ('CAGAAGCAAUAUUACGGUGA', 'middle bin'),
  ('GUGCAGCAAUAUUACGCGUU', 'middle bin'),
  ('AUUAAGCAAUAUUACGUUGG', 'bottom bin');
